Assignment: determine reported Measurement 3 for the given compounds.
- measurement.description: Conductivity measurements of transport buffers
- Assay type: physicochemical
- experimental.setup: conductivity
Use mS/cm as the unit, but write only the number.

Request: Which measured Measurement 3 value corresponds to [Cl-].[Na+] ?
Result: 1.18

Request: Look up Measurement 3 for this compound: NC(CO)(CO)CO
Result: 3.40

Request: Given the entry O=C([O-])C(=O)[O-].[Na+].[Na+] [5 mM NaOxalate] , report its measured Measurement 3.
Result: 1.12

====

Answer each item with its documented Measurement 1.
- measurement.description: Conductivity measurements of transport buffers
- Type: physicochemical
- experimental.setup: conductivity
Report only the number, with the unit μS/cm understood.

Request: Please report the recorded Measurement 1 for O=C([O-])CC(O)(CC(=O)[O-])C(=O)[O-].[Na+].[Na+].[Na+] [3.3 mM NaCitrate, sodium citrate] .
Result: 964

Request: Would you mind telling me what Measurement 1 value was observed for O=S(=O)(O)CCN1CCN(CCO)CC1 ?
Result: 141

Request: Which Measurement 1 is listed for N[C@@H](CS)C(=O)O ?
Result: 27.4

Request: Recorded Measurement 1 of CC(=O)[O-].[Na+] [10 mM NaAcetate] , please.
Result: 901

====

- measurement.description: Conductivity measurements of transport buffers
- Assay type: physicochemical
- experimental.setup: conductivity
So I've got a bunch of molecules here, and I need their Measurement 2 values.
Expressed in μS/cm, but write only the number.

Request: Which Measurement 2 is listed for N[C@@H](CS)C(=O)O [Cysteine] ?
Result: 17.3

Request: Need Measurement 2, item CC(=O)[O-].[Na+] [10 mM NaAcetate]
Result: 917

Request: Suppose we examine the molecule O=S(=O)(O)CCN1CCN(CCO)CC1 [250 mM HEPES, HEPES] ; what Measurement 2 value has been reported?
Result: 144

====

Provide the reported Average/Std. Deviation of each item.
- measurement.description: Conductivity measurements of transport buffers
- Type: physicochemical
- experimental.setup: conductivity

Request: Form field: reported Average/Std. Deviation of NC(CO)(CO)CO [50 mM TRIS, TRIS]
Result: 3.35 +/− 0.19 mS/cm

Request: Endpoint output: Average/Std. Deviation of CC(=O)[O-].[Na+] [10 mM NaAcetate] . Value?
Result: 934 +/− 43.5 μS/cm

Request: Requested field: Average/Std. Deviation. Item: O=C([O-])C(=O)[O-].[Na+].[Na+] [5 mM NaOxalate]
Result: 1.06 +/− 0.055 mS/cm

# credit: patent US8114589B2
